Field: Hepatic index (Liver weight/body weight) × 100. Provide a value for each of the compounds that follow.
test system: liver; assay: Hepatic tolerability, 15 days at high dose: hepatic index; assay type: in vivo; conditions: rat, oral, 15 days, 300 mg/kg/day; absolute values; solvent 5,4

Data request, read-out Hepatic index (Liver weight/body weight) × 100, for CC(C)COC(=O)c1ccc(OCC(O)CSc2nc3ccccc3o2)cc1 (centres unmarked) [Example 11] 5,8

Data request, read-out Hepatic index (Liver weight/body weight) × 100, for CC(C)COC(=O)c1ccc(OCC(=O)CSc2nc3ccccc3s2)cc1 [Example 2] 6,0

Data request, read-out Hepatic index (Liver weight/body weight) × 100, for CC(C)COC(=O)c1ccc(OCC(O)CSc2nc3ccccc3s2)cc1 (centres unmarked) [Example 6] 5,9

Data request, read-out Hepatic index (Liver weight/body weight) × 100, for CC(C)COC(=O)c1ccc(OCC(=O)CSc2nc3c(N)ncnc3n2[C@@H]2O[C@H](CO)[C@@H](O)[C@H]2O)cc1 [Example 28] 5,6

Data request, read-out Hepatic index (Liver weight/body weight) × 100, for CC(C)COC(=O)c1ccc(OCC(CSc2nc3c(N)ncnc3n2[C@@H]2O[C@H](CO)[C@@H](O)[C@H]2O)=NNC(N)=O)cc1 [Example 33] 5,3

All figures here come from patent US5470858A.
